Test system: Rat fibroblasts (CREF)
Test: Peg3 promoter luciferase inhibitors, potency, dose response, cell-based, HeLa, CREF/GAPDH counter-screen panel (AID 624167)
Settings: CREF/GAPDH counter-screens; run 1, dose range 1, at 100 µM (top of the series)
Please go through the items and note down their inhibition.
Give the value in % but do not write % after it.

query: Name the reported inhibition value associated with the compound "COC(=O)c1nn(-c2ccc3c(c2)CCN3C(C)=O)cc1O"
result: 99.1

query: And "O=C(Nc1nc2cc3c(cc2s1)OCCO3)c1ccco1" ?
result: 92.9

query: And "CN(C)c1ccc(/C=C/c2ccc3ccccc3n2)cc1" ?
result: 96.6

query: And "O=C(CCl)N1c2ccccc2Sc2ccc3ccccc3c21" ?
result: 99.4

query: And "CC(C)(C)C(=O)Nc1ccc(NC(=O)c2ccco2)nc1" ?
result: 100

query: And "COc1cccc2nc3c(C(=O)NCCN(C)C)cccc3cc12" ?
result: 98

query: And "O=C(Nc1nc2ccccc2[nH]1)c1ccccc1F" ?
result: 98.8

query: And "CN(C)S(=O)(=O)c1ccc(-c2csc(N/N=C/c3ccc(O)cc3)n2)cc1" ?
result: 97.4

query: And "O=[N+]([O-])c1ccc(S(=O)(=O)c2ccccc2)nc1" ?
result: 99.3

query: And "COCCn1c(C)cc(C(=O)COC(=O)c2cccc(O)c2)c1C" ?
result: 98.3

query: And "Cc1ccc(/C=C2\SC(=S)N(CCCC(=O)NNC(=O)c3ccccc3O)C2=O)cc1" ?
result: 10.1

query: And "Cc1ccc(-c2cn3cc(C)ccc3n2)cc1" ?
result: 98.1

query: And "NC1=C(Br)C(=O)c2ncccc2C1=O" ?
result: 98.1

query: And CCCC(=O)NC(c1ccc(N(C)C)cc1)c1ccc2cccnc2c1O (stereo unspecified) ?
result: 42.3

query: And "COc1ccc(C(=O)/C=C/Nc2ccccn2)cc1" ?
result: 96.2

query: And "CCOc1ccc(C(=O)O/N=C(\N)c2ccccn2)cc1" ?
result: 97.8

query: And N=c1n(CCN2CCCCC2)c2ccccc2n1CC(O)c1ccc(Cl)c(Cl)c1 (stereo unspecified) ?
result: 100

query: And CCCS(=O)(=O)c1cnc(C2COc3ccccc3O2)nc1N (stereo unspecified) ?
result: 89.5

query: And "CCCn1c(C)cc(C(=O)CN2C(=O)c3ccccc3S2(=O)=O)c1C" ?
result: 91.2

query: And "Cc1ccc(C)c(S(=O)(=O)N2CCN(c3ncnc4sccc34)CC2)c1" ?
result: 13.9

query: And "Cc1ccc(-n2[nH]c(=O)c(-c3ccccn3)c2C)cc1" ?
result: 86.5

====

Assay: HIF-2a reporter inhibitor retest, confirmation, luminescence, 786-0 RCC cells (AID 651580)
Conditions: HIF-2a luciferase reporter luminescence, overnight, at 18.8 µM, stronger effect = higher value
The other results are listed elsewhere or left out.
Given measured inhibition, output y if it is greater than or equal to 40% and n if not.

query: Does the reported inhibition for "COc1cc2c(cc1O)C(SC)=NC(C)(C)C2" fall at or above the 40% mark?
result: n

query: And "Cc1ccc(OCC(=O)c2cc(C)n(Cc3ccco3)c2C)c([N+](=O)[O-])n1" ?
result: y

query: And "Cc1cccc2sc(N(CCCN(C)C)C(=O)CCS(=O)(=O)c3ccccc3)nc12" ?
result: n

query: And "CN(C)CCNC(=O)c1cccc(-c2cnc3c(NC=O)cc(-c4cccc(C(F)(F)F)c4)cn23)c1" ?
result: n

query: And "Cc1c(CCC(=O)O)c(=O)oc2cc3occ(-c4ccccc4)c3cc12" ?
result: y

query: And "Cc1ccc(-c2noc(CNC(=O)c3ccoc3C)n2)cc1" ?
result: n

query: And "COc1ccc(-c2oc3ncnc(NCCCO)c3c2-c2ccc(OC)cc2)cc1" ?
result: n

query: And "N#C/C(=C/c1cccc([N+](=O)[O-])c1)c1nnc2n1CCCCC2" ?
result: n

query: And "COC(=O)c1c(NC(=O)CCCC(=O)O)sc2c1CCCCC2" ?
result: y

query: And Cc1ccsc1C(=O)OCC(=O)c1cc(C)n(CC2CCCO2)c1C (centres undefined) ?
result: y

query: And CC1=CC(C)(C)Nc2ccc(OC(=O)CN3C(=O)C4CCCCC4C3=O)cc21 (centres undefined) ?
result: y

query: And "COc1cccc2c(C)c(C(=O)O)[nH]c12" ?
result: n

query: And "COc1cc(SC)ccc1C(=O)Nc1nc(C)cs1" ?
result: y

query: And COc1ccc2c(c1OC)C(=O)OC2Nc1nc(-c2ccccc2)cs1 (centres undefined) ?
result: n

====

Biological target: Tumor necrosis factor receptor superfamily member 10B (Homo sapiens)
Experiment: TRAIL sensitizers in caspase-8 expressing neuroblastoma cells, dose response, NB7 cells plus caspase-8, luminescence, panel (AID 652002)
Conditions: NB7 neuroblastoma +caspase-8, TRAIL sensitization, luminescence viability, NB7+Caspase-8, with TRAIL, run 2; at 12.5 µM (top of the series)
Please go through the items and note down their activity, % sensitization.
Answer as a quantity: numeral, then unit.

query: Name the reported activity, % sensitization value associated with the compound "C/C(=N\NC(=O)c1csc(C)c1C)c1ccco1"
result: 13.8%

query: And "C/C(=N\NC(=O)c1n[nH]c2c1CCC2)c1ccco1" ?
result: 33.5%

query: And "CCOC(=O)C(=C1Nc2ccccc2N1)n1c(-c2cccnc2)nc2ccccc21" ?
result: 36.8%

query: And "CC(C)CCn1cnc2c([nH]c3cccc(Cl)c32)c1=O" ?
result: -14%

query: And "CC1(C)N=C(N)N=C(N)N1c1ccc(CCCCc2ccccc2)cc1" ?
result: 52.2%

query: And "Cc1ccc(NC(=O)c2cc3ccccc3o2)nc1" ?
result: 41.2%

query: And "COc1ccc(-c2cc(C(=O)N/N=C/c3cccnc3)c3ccccc3n2)cc1" ?
result: 33.2%

query: And "O=C(Nc1ccc2ccccc2c1)c1ccc(Cl)cc1" ?
result: 31.4%

====

Assay: caspase-8 TRAIL sensitization, hit retest, confirmation, cell-based, NB7+caspase-8, with/without TRAIL, luminescence panel (AID 651596)
Conditions: NB7 neuroblastoma + caspase-8, without TRAIL, luminescence viability, without TRAIL, mean of runs, at 10 µM
Please go through the items and note down their activity.
Give the value in % but do not write % after it.

query: Name the reported activity value associated with the compound "CC(=O)N1CCc2c(sc(NC(=O)c3ccc([N+](=O)[O-])o3)c2C(N)=O)C1"
result: 90.9

query: And "O=C(C[C@H]1C/C=C\C[C@@H](NC(=O)OCC2c3ccccc3-c3ccccc32)C(=O)O[C@@H](c2ccccc2)CNC1=O)N[C@H](CO)Cc1ccccc1" ?
result: 43.2

query: And "COC(=O)c1ccc2nc(-c3ccc4c(c3)OCO4)cn2c1" ?
result: 76

query: And C#CC(=O)N(c1cc(OC)ccc1OC)C(C(=O)NC1CCCC1)c1cccs1 (stereo unspecified) ?
result: 98.5

query: And "COc1ccc(-c2cc3nc4n(c(=O)c3s2)CCC4)cc1" ?
result: 70.4

query: And "Clc1ncnc2c1oc1ccccc12" ?
result: 60.4

====

Molecular target: Tumor necrosis factor receptor superfamily member 10B (Homo sapiens) (UniProt O14763)
Sequence (O14763 whole entry, looked up): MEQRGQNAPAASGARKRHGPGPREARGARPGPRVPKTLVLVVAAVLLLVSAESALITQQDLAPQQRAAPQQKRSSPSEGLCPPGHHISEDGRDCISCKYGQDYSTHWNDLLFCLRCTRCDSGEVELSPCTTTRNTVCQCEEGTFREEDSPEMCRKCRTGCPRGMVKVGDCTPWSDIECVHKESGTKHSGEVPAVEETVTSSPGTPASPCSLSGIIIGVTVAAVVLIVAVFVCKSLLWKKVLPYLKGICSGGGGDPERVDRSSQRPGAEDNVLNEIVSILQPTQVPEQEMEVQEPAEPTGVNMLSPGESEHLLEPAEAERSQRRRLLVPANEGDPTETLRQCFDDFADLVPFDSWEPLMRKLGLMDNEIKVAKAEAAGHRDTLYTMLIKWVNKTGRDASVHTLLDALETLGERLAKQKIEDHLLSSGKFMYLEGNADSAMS
Test: caspase-8 TRAIL sensitization, hit retest, confirmation, cell-based, NB7+caspase-8, with/without TRAIL, luminescence panel (AID 651596)
Conditions: NB7 neuroblastoma + caspase-8, TRAIL sensitization, luminescence viability, with TRAIL, mean of runs, at 10 µM, stronger effect = higher value
endpoint: activity (%)
Give the value in % but do not write % after it.

query: Find the measured activity: item "O=C(CCl)N1CCN(S(=O)(=O)c2ccc3c(c2)CCC3)CC1" , target or system Tumor necrosis factor receptor superfamily member 10B (Homo sapiens) (UniProt O14763).
result: 97.7

query: And N/C(=N\OC(=O)c1ccccc1)C(C(=O)NOC(=O)c1ccccc1)C1CCCCC1 (stereo not given) ?
result: 97.6

query: And "COc1cccc(/C=N/Nc2nn3cnnc3c3ccccc23)c1" ?
result: 62

query: And "CCCn1c(C)cc(C(=O)COC(=O)c2cc(=O)[nH]c3ccccc23)c1C" ?
result: 61.2

query: And "Cc1ccc(S(=O)(=O)N2CCCCC2)cc1NC(=O)Cn1ncc(Cl)c(Cl)c1=O" ?
result: 98.7

query: And "COc1ccccc1C=NNC(=O)NN=Cc1ccccc1OC" ?
result: 61

query: And Cc1ccsc1C(=O)OCC(=O)c1cc(C)n(CC2CCCO2)c1C (stereo not given) ?
result: 74.5

query: And "CCc1ccc(C(=O)Nc2nc3ccccc3[nH]2)cc1" ?
result: 98.2

query: And "C/C(=N\Nc1nc(C)cc(-c2ccccc2)n1)c1cccc(N)c1" ?
result: 41.5

query: And "Cc1cccc(/C=N/Nc2nncc3ccccc23)c1" ?
result: 80.9

Taken from PubChem BioAssay.
